These data points were gathered from patent US11440922B2.

TARGET OR TEST SYSTEM: human mGluR5 receptor (Homo sapiens (Human), UniProt P41594)
Sequence (P41594 21-1212): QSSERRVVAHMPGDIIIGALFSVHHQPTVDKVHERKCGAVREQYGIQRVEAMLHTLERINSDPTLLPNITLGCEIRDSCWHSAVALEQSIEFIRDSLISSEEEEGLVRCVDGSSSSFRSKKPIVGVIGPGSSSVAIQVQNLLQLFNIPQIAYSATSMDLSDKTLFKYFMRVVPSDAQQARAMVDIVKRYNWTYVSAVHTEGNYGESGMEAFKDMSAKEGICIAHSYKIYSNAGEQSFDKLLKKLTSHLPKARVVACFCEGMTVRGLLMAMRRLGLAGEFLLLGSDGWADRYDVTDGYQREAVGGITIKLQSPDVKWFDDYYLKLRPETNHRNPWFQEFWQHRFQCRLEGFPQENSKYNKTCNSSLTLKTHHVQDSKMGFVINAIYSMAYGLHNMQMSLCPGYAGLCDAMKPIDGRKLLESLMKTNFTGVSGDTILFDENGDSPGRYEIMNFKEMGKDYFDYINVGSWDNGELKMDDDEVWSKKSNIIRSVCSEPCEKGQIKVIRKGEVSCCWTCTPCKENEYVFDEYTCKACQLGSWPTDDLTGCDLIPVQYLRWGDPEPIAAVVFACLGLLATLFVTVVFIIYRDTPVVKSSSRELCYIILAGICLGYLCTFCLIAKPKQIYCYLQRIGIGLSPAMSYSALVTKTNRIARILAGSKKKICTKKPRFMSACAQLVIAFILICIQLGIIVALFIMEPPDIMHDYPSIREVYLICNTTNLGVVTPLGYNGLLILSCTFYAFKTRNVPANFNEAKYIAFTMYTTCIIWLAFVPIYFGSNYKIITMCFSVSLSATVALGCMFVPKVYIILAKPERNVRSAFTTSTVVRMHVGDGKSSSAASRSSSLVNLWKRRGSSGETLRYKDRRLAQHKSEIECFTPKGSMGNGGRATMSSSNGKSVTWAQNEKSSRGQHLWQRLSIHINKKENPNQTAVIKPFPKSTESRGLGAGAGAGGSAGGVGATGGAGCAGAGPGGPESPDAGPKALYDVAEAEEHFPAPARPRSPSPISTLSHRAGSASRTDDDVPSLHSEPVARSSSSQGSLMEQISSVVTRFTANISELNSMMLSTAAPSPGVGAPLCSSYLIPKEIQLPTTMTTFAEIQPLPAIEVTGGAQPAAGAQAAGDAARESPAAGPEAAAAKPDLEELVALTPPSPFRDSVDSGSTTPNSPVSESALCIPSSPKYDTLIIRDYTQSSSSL
PROTOCOL: Radioligand binding assay at cloned human mGluR5 receptor subtype ([3H]MPEP)
CONDITION DETAILS: 4 nM [3H]MPEP, CHO T-REx h-mGluR5 cells, 60 min at 25° C.; read-out: mGlu5 Ki
MEASURED PARAMETER: Ki (nM)

// worked examples, Ki included
CCOC(=O)N1CC/C(=C\C#Cc2cc(Cl)ccn2)C(C)(C)C1 :: 1.01
CC1(C)CN(C(=O)c2cccc(Cl)c2)CC/C1=C\c1cc(-c2cccc(Cl)c2)[nH]n1 :: 932
CCOC(=O)N1CC/C(=C\C#Cc2cccc(C#N)c2)C(C)(C)C1 :: 0.64
CCn1nc(C)c(C(=O)N2CC/C(=C\C#Cc3cccc(Cl)c3)C(C)(C)C2)n1 :: 2.42
CCOC(=O)N1CC/C(=C\C#Cc2cc(Cl)ccn2)C1(C)C :: 16.3
CCOC(=O)N1CC/C(=C\C#Cc2cc(F)ccc2F)C(C)(C)C1 :: 0.89

[I] CC1(C)CN(C(=O)c2cccc(Cl)c2)CC/C1=C\C#Cc1cccc(Cl)c1
[II] CCOC(=O)N1CC/C(=C\C#Cc2cccc(C)n2)C1(C)C
[III] CC1(C)CN(C(=O)c2cccc(Cl)c2)CC/C1=C\C#Cc1cccc(CO)c1
List from greatest to least Ki. Please list the labels according to the requested order.
III, II, I

###

TARGET OR TEST SYSTEM: human mGlu5 receptor (Homo sapiens (Human))
PROTOCOL: Fold shift of agonist curve determination
Assay type: cell-based
CONDITION DETAILS: ratio of EC50 agonist (quisqualate or glutamate) curves in presence and in absence of test compound; compound at 1 μM
MEASURED PARAMETER: mGlu5 Fold Shift @1 μM

CC1(C)CN(C(=O)c2cccc(Cl)c2)CC/C1=C\C#Cc1cccc(Cl)c1 :: 2.7
Cc1cccc(C(=O)N2CC/C(=C\C#Cc3cccc(Cl)c3)C(C)(C)C2)c1 :: 2.8
CCn1nc(C)c(C(=O)N2CC/C(=C\C#Cc3cccc(Cl)c3)C(C)(C)C2)n1 :: 2.7

[A] Cc1cc(C(=O)N2CC/C(=C\C#Cc3cc(F)cc(C#N)c3)C(C)(C)C2)c(C)o1
[B] O=C(c1cccc(Cl)c1)N1CC/C(=C\C#Cc2cccc(Cl)c2)C(F)(F)C1
[C] COc1cc(OC)nc(C(=O)N2CC/C(=C\C#Cc3cccc(Cl)c3)C(C)(C)C2)n1
List from greatest to least mGlu5 Fold Shift @1 μM. Please list the labels according to the requested order.
B, A, C
(B: 4.5, A: 2.3, C: 1.35)

###

TARGET OR TEST SYSTEM: human mGlu5 receptor (Homo sapiens (Human))
PROTOCOL: Calcium fluorescence measurements, antagonist potency (negative allosteric modulator activity)
CONDITION DETAILS: EC80 of quisqualate as agonist, compounds applied 10 minutes before agonist
MEASURED PARAMETER: IC50 (nM)

CCOC(=O)N1CC/C(=C\C#Cc2cc(Cl)ccn2)C1(C)C :: 31.6
COC(=O)N1CC/C(=C\C#Cc2cccc(Cl)c2)C(C)(C)C1 :: 18.2

[I] CCOC(=O)N1CC/C(=C\C#Cc2cccc(C#N)c2)C(C)(C)C1
[II] CCOC(=O)N1CC/C(=C\C#Cc2cccc(Cl)c2)C1(C)C
Pick one, I or II : lowest reported IC50. Let me know the label of the one you choose.
I
